Attribution: patent US20230115611A1

Biological target: human Nav 1.7 (Homo sapiens)
Construct: expressed in transfected cells
Sequence (Q15858 whole entry): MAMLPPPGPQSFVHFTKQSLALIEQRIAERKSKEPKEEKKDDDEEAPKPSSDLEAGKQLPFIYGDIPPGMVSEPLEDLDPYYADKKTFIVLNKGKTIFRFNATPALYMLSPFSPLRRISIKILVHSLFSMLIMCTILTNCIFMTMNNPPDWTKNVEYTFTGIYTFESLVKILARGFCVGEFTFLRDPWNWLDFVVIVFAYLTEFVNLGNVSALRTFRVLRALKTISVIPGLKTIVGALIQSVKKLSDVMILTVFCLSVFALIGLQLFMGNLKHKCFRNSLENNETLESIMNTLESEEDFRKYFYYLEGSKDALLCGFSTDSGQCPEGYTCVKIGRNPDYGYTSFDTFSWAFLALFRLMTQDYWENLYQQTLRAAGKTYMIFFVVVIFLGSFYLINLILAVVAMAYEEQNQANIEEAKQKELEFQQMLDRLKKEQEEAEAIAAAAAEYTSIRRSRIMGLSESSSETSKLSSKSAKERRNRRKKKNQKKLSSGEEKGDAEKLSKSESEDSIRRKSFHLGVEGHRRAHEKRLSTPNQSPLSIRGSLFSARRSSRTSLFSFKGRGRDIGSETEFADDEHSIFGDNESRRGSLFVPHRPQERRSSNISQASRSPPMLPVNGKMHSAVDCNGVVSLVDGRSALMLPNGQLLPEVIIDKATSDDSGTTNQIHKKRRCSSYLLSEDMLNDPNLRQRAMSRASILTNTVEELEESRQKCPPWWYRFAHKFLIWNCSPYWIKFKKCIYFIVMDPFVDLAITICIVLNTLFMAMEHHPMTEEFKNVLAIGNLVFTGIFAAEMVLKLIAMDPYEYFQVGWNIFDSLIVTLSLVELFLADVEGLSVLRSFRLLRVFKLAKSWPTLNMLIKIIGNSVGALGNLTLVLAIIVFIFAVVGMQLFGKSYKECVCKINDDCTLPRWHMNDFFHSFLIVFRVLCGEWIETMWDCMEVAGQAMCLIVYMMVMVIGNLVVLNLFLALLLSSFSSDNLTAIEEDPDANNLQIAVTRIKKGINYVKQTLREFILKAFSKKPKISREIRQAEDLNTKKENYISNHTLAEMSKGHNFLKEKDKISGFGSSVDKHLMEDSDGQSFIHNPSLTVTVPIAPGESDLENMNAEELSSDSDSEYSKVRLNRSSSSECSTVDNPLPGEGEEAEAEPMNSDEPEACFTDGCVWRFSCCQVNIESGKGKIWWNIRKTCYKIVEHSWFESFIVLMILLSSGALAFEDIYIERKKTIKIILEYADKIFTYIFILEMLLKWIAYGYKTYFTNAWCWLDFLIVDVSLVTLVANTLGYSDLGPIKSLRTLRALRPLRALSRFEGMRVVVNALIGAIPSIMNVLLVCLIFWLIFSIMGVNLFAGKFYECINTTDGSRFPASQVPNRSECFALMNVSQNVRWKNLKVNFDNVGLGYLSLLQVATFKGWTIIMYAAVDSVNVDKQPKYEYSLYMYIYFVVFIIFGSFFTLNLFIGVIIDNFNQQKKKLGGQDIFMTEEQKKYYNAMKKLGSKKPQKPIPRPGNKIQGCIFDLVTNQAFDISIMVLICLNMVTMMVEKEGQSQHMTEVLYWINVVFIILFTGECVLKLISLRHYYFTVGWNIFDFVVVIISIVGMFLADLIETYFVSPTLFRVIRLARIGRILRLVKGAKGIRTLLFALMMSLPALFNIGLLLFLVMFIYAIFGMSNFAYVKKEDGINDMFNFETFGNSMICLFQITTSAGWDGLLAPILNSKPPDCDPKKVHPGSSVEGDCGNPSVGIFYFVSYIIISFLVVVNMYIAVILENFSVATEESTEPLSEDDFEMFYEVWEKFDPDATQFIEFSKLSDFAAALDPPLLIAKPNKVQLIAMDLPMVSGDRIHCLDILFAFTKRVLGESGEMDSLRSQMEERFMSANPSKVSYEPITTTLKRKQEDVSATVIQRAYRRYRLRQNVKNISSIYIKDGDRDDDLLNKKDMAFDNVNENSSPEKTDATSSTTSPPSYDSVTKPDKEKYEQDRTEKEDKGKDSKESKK
Test: Nav 1.7 sodium channel inhibition, automated patch clamp (QPATCH II), two pulse voltage protocol
Type: cell-based
Details: inactivated state (P2) of Nav 1.7; CHO cells; compound at/around Cmax concentration as in Table 4
Experimental: Chinese Hamster Ovary (CHO) cells stably expressing human Nav 1.7 were cultured according to the manufacturer's standard operating procedure (SOP) and enzymatically lifted into solution following Sophion's standard SOP. Voltage protocol 1 (VP1): A voltage protocol designed to generate a current voltage relationship and to estimate the half inactivation potential (V1/2) was used. […] Voltage protocol 2 (VP2): Two pulse voltage protocol. […] Compound effects were assessed at both P1 and P2. […]
Mean % inhibition-inactivated state values for the compounds below.
Answer with the number, then the unit.

Illustrative cases are given below, each with its answer.
Q: human Nav 1.7 (Homo sapiens) / Mean % inhibition-inactivated state / COCCOC(=O)C1=C(C)NC(C)=C(C(=O)OC/C=C/c2ccccc2)C1c1cccc([N+](=O)[O-])c1 (stereo not drawn) : value?
A: 18.5%

Q: human Nav 1.7 (Homo sapiens) / Mean % inhibition-inactivated state / `NCC1(CC(=O)O)CCCCC1` : value?
A: 6.3%

Q: human Nav 1.7 (Homo sapiens) / Mean % inhibition-inactivated state / CCOC(=O)C1=C(COCCN)NC(C)=C(C(=O)OC)C1c1ccccc1Cl (stereo not drawn) : value?
A: 7.8%

Q: human Nav 1.7 (Homo sapiens) / Mean % inhibition-inactivated state / `CCN(CC)CC(=O)Nc1c(C)cccc1C` : value?
A: 89.0%

Q: human Nav 1.7 (Homo sapiens) / Mean % inhibition-inactivated state / CCCCN1CCCCC1C(=O)Nc1c(C)cccc1C (stereo not drawn) : value?
A: 20%

Next:
Q: human Nav 1.7 (Homo sapiens) / Mean % inhibition-inactivated state / `C[S+](C)[O-]` : value?
A: 38.7%

---

target: human Nav 1.7 (Homo sapiens); construct: expressed in transfected cells; assay: Nav 1.7 sodium channel inhibition, automated patch clamp (QPATCH II), two pulse voltage protocol; format: cell-based; details: closed state (P1) of Nav 1.7; CHO cells; compound at/around Cmax concentration as in Table 4
Mean % inhibition-closed state values for the compounds below.
// return numeric value only (unit: %, not printed)

Illustrative cases are given below, each with its answer.
Q: Field request: Mean % inhibition-closed state | item: `NCC1(CC(=O)O)CCCCC1`
A: −5.2

Q: Field request: Mean % inhibition-closed state | item: CCOC(=O)C1=C(COCCN)NC(C)=C(C(=O)OC)C1c1ccccc1Cl (stereo not drawn)
A: −7.4

Q: Field request: Mean % inhibition-closed state | item: CCCCN1CCCCC1C(=O)Nc1c(C)cccc1C (stereo not drawn)
A: 2.5

Q: Field request: Mean % inhibition-closed state | item: `C[S+](C)[O-]`
A: −2.7

Q: Field request: Mean % inhibition-closed state | item: `CCN(CC)CC(=O)Nc1c(C)cccc1C`
A: 40.9

Kindly consider the entry below.
Q: Field request: Mean % inhibition-closed state | item: COCCOC(=O)C1=C(C)NC(C)=C(C(=O)OC/C=C/c2ccccc2)C1c1cccc([N+](=O)[O-])c1 (stereo not drawn)
A: −6.7
